- PROTOCOL SUMMARY: Selectivity index, ratio of CC50 for human Huh-7 cells to IC50 for antiplasmodial activity against chloroquine resistant Plasmodium falciparum INDO infected in human erythrocytes
- Type: toxicity, cell-based
- ASSAY SETUP: read-out: Ratio CC50/IC50
MEASURED PARAMETER: selectivity ratio

# example entries with known answers
- MOL: "Clc1ccc(-c2nnn(CCCN3CCN(c4ccnc5cc(Cl)ccc45)CC3)n2)cc1"
  selectivity ratio: "> 139"
- MOL: "O=C(Cn1nnc(-c2cccc(Br)c2)n1)N1CCN(c2ccnc3cc(Cl)ccc23)CC1"
  selectivity ratio: "> 44.5"
- MOL: "O=C(Cn1nnc(-c2cccc(Cl)c2)n1)N1CCN(c2ccnc3cc(Cl)ccc23)CC1"
  selectivity ratio: "> 67.7"

Please fill in: selectivity ratio reported for Cc1ccc(-c2nnn(CCCN3CCN(c4ccnc5cc(Cl)ccc45)CC3)n2)cc1 = 48.8

Please fill in: selectivity ratio reported for O=[N+]([O-])c1cccc(-c2nnn(CCCN3CCN(c4ccnc5cc(Cl)ccc45)CC3)n2)c1 = 4.45

Please fill in: selectivity ratio reported for O=C(Cn1nnc(-c2ccc(Br)cc2)n1)N1CCN(c2ccnc3cc(Cl)ccc23)CC1 = > 35.6

Please fill in: selectivity ratio reported for CC(C)c1ccc(-c2nnn(CC(=O)N3CCN(c4ccnc5cc(Cl)ccc45)CC3)n2)cc1 = > 60.1

Please fill in: selectivity ratio reported for O=C(Cn1nnc(-c2cccc([N+](=O)[O-])c2)n1)N1CCN(c2ccnc3cc(Cl)ccc23)CC1 = 223

Please fill in: selectivity ratio reported for Clc1cccc(-c2nnn(CCCN3CCN(c4ccnc5cc(Cl)ccc45)CC3)n2)c1 = > 20.1

Please fill in: selectivity ratio reported for Fc1cccc(-c2nnn(CCCN3CCN(c4ccnc5cc(Cl)ccc45)CC3)n2)c1 = > 28.1

Please fill in: selectivity ratio reported for COc1cccc(-c2nnn(CCCN3CCN(c4ccnc5cc(Cl)ccc45)CC3)n2)c1 = > 52.2

Please fill in: selectivity ratio reported for COc1ccc(-c2nnn(CCCN3CCN(c4ccnc5cc(Cl)ccc45)CC3)n2)cc1OC = 21.7

Please fill in: selectivity ratio reported for O=C(Cn1nnc(-c2ccc([N+](=O)[O-])cc2)n1)N1CCN(c2ccnc3cc(Cl)ccc23)CC1 = > 179

Please fill in: selectivity ratio reported for Fc1ccc(-c2nnn(CCCN3CCN(c4ccnc5cc(Cl)ccc45)CC3)n2)cc1 = > 99

Please fill in: selectivity ratio reported for O=C(Cn1nnc(-c2ccc(F)cc2)n1)N1CCN(c2ccnc3cc(Cl)ccc23)CC1 = 1.95

Values were extracted from ChEMBL document CHEMBL5335820.
